This listing pairs sequences with measured cleaved RNA product abundance.
# Test system: Bacillus subtilis
# procedure text: cleaved RNA product abundance (RNA/gDNA barcode ratio) relative to median wild-type variant (ratio to wild type); higher = more accumulation of the downstream cleavage product
# cond: experiment (reporter, strain, medium): exp 6: tetM reporter, strain 168; cleavage site: cggR-gapA (positions -7 to +36 mutated)
Lab note: record just the number, no unit beside it.

ACAGACGAAGGAGCCGCAAAGAAGTTATTAACGGATGAATAATCCCTAAATATAAATATCTCTCACTTATTTAAA: 0.194
ACAGACGAAGGAGCCGCAAAGAAATTATTAAGGAATGAATAATCCCTCAATATAAATATCTCTCACTTATTTAAA: 0.104
ACAGACGAAGGAGCCGCAAAGAAGTTATTAAGCGATGAATAATCCCTCAATATAAATATCTCTCACTTATTTAAA: 0.132

Challenge: Please indicate cleaved RNA product abundance recorded for `ACAGACGAAGGAGCCGCAAAGAAGTTATTAAGGGATGAATAATCCCTCAAGATAAATATCTCTCACTTATTTAAA`
Response given: 0.289

Challenge: Give cleaved RNA product abundance for the following sequence: `ACAGACGAAGGAGCCGCAAAGAAGTTATGAAGGGATGAATAATCCCTCAATATAAATATCTCTCACTTATTTAAA`
Response given: 0.205

Challenge: Determine from records and report cleaved RNA product abundance for `ACAGACGAAGGAGCCGCAAAGAAGTTTTTAAGGGATGAATAATCCCTCAATATAAATATCTCTCACTTATTTAAA`
Response given: 0.209

Challenge: Name the recorded cleaved RNA product abundance of the sequence listed here: `ACAGACGAAGGAGCCGCAAAGAAGTTATTAAGAGATGAATAAACCCTCAATATAAATATCTCTCACTTATTTAAA`
Response given: 0.115

----------
# Test system: Bacillus subtilis
# procedure text: cleaved RNA product abundance (RNA/gDNA barcode ratio) relative to median wild-type variant (ratio to wild type); higher = more accumulation of the downstream cleavage product
# cond: experiment (reporter, strain, medium): exp 8a: truncated aprE reporter, strain BJT201 with 2% xylose (RNase J1 expressed); cleavage site: glnRA (positions -5 to +31 mutated)
measured metric: cleaved RNA product abundance
Give your answer as a number; write no unit.

CGACATGTCCCGCTTCTTTCATTAATCCGTTAACAACTGTATTGCTATATACATTTACCTTTTAAGAGGAGGAAT: 0.316
CGACATGTCCCGCTTCTTTCATTAATCCGTTAGAAACTATTTTGCTATATACATTTACCTTTTAAGAGGAGGAAT: 0.339
CGACATGTCCCGCTTCTTTCATTAATCCTTTAGCAACTGTTTTGCTATACACATTTACCTTTTAAGAGGAGGAAT: 0.451

// next entry
Challenge: Write down the reported cleaved RNA product abundance (system: Bacillus subtilis) of `CGACATGTCCCGCTTCTTTCATTACTCCGTTAGCAACTGTTTTGCTATATACATATACCTTTTAAGAGGAGGAAT`
Response given: 0.767

----------
# Tested on: Bacillus subtilis
# procedure text: cleaved RNA product abundance (RNA/gDNA barcode ratio) relative to median wild-type variant (ratio to wild type); higher = more accumulation of the downstream cleavage product
# cond: experiment (reporter, strain, medium): exp 8a: truncated aprE reporter, strain BJT201 with 2% xylose (RNase J1 expressed); cleavage site: glnRA (positions -5 to +31 mutated)
measured metric: cleaved RNA product abundance
I'd appreciate a reply containing only the number, no unit.

CGACATGTCCCGCTTCTTTCATTAATCCGTTAGCAAGTGTTTTGCTATATTCATTTACCTTTTAAGAGGAGGAAT: 0.488
CGACATGTCCCGCTTCTTTCATTAATCCGTTAGCAACTGTTTTGCTATACACATTTACATTTTAAGAGGAGGAAT: 0.372

Challenge: Return the recorded cleaved RNA product abundance value; entry: `CGACATGTCCCGCTTCTTTCATTAATCCGTTAGCAACTGTTTTGCTATGTACATTTACCTTTTAAGAGGAGGAAT`
Response given: 0.215
